meta.source: patent US6914045B2

# Tested on: Staphylococcus sp.
# test-method-notes: in vitro antibacterial evaluation, MIC by broth dilution
# Format: cell-based
# stated-conditions: broth dilution, 18 hours at 35° C.; strain GC 4549
experimental-endpoint: MIC Coagulase Negative Staphylococcus (GC 4549) (µg/mL)
Numeric only. Scale: µg/mL

-- ask Which MIC Coagulase Negative Staphylococcus (GC 4549) value is on record for CC(c1ccccc1)C1NC(=O)CNC(=O)C(CO)NC(=O)C(C(O)C2CNC(=N)N2C2OC(CO)C(O)C(O)C2O)NC(=O)C(C(O)C2CNC(=N)N2)NC(=O)C(Cc2ccc(OC3OC(CO)C(OC4OC(COCC=C(c5ccccc5)c5ccccc5)C(O)C(O)C4O)C(O)C3O)cc2)NC1=O (centres unmarked) ?
-- reply 2

-- ask Using the record for CC(c1ccccc1)C1NC(=O)CNC(=O)C(CO)NC(=O)C(C(O)C2CNC(=N)N2C2OC(CO)C(O)C(O)C2O)NC(=O)C(C(O)C2CNC(=N)N2)NC(=O)C(Cc2ccc(OC3OC(CO)C(OC4OC5COC(Cc6ccc(F)cc6)OC5C(O)C4O)C(O)C3O)cc2)NC1=O (centres unmarked) , report its MIC Coagulase Negative Staphylococcus (GC 4549).
-- reply 0.5

-- ask Value lookup for MIC Coagulase Negative Staphylococcus (GC 4549); key = CC(c1ccccc1)C1NC(=O)CNC(=O)C(CO)NC(=O)C(C(O)C2CNC(=N)N2C2OC(CO)C(O)C(O)C2O)NC(=O)C(C(O)C2CNC(=N)N2)NC(=O)C(Cc2ccc(OC3OC(CO)C(OC4OC5COC(c6cccs6)OC5C(O)C4O)C(O)C3O)cc2)NC1=O (centres unmarked)
-- reply 1

-- ask // returns reported MIC Coagulase Negative Staphylococcus (GC 4549) for input CC=C(C)C(=O)OC1C(CO)OC(OC2C(CO)OC(Oc3ccc(CC4NC(=O)C(C(C)c5ccccc5)NC(=O)CNC(=O)C(CO)NC(=O)C(C(O)C5CNC(=N)N5C5OC(CO)C(O)C(O)C5O)NC(=O)C(C(O)C5CNC(=N)N5)NC4=O)cc3)C(O)C2O)C(O)C1O (centres unmarked) [Example 278b]
-- reply 2

-- ask What MIC Coagulase Negative Staphylococcus (GC 4549) value was documented for this compound, COc1cc(OC)cc(C2OC3C(OC4C(CO)OC(Oc5ccc(CC6NC(=O)C(C(C)c7ccccc7)NC(=O)CNC(=O)C(CO)NC(=O)C(C(O)C7CNC(=N)N7C7OC(CO)C(O)C(O)C7O)NC(=O)C(C(O)C7CNC(=N)N7)NC6=O)cc5)C(O)C4O)OC(CO)C(O)C3O2)c1 (centres unmarked) [Example 150a] ?
-- reply 8

-- ask Would you mind telling me what MIC Coagulase Negative Staphylococcus (GC 4549) value was observed for CC(C)=CCOc1cccc(C2OCC3OC(OC4C(CO)OC(Oc5ccc(CC6NC(=O)C(C(C)c7ccccc7)NC(=O)CNC(=O)C(CO)NC(=O)C(C(O)C7CNC(=N)N7C7OC(CO)C(O)C(O)C7O)NC(=O)C(C(O)C7CNC(=N)N7)NC6=O)cc5)C(O)C4O)C(O)C(O)C3O2)c1 (centres unmarked) ?
-- reply 8

-- ask Value lookup for MIC Coagulase Negative Staphylococcus (GC 4549); key = CC(c1ccccc1)[C@@H]1NC(=O)CNC(=O)[C@H](CO)NC(=O)[C@H](C(O)C2CNC(=N)N2)NC(=O)[C@H](C(O)C2CNC(=N)N2)NC(=O)[C@H](Cc2ccc(O)cc2)NC1=O (some centres unmarked) [Example 280b]
-- reply 32

-- ask Field request: MIC Coagulase Negative Staphylococcus (GC 4549) | item: COc1ccc2cc(COC3C(OC4C(CO)OC(Oc5ccc(CC6NC(=O)C(C(C)c7ccccc7)NC(=O)CNC(=O)C(CO)NC(=O)C(CC7CNC(=N)N7C7OC(CO)C(O)C(O)C7O)NC(=O)C(CC7CNC(=N)N7)NC6=O)cc5)C(O)C4O)OC(CO)C(O)C3O)ccc2c1 (centres unmarked) [Example 245c]
-- reply 64

-- ask Entry COc1cc(C2OCC3OC(OC4C(CO)OC(Oc5ccc(CC6NC(=O)C(C(C)c7ccccc7)NC(=O)CNC(=O)C(CO)NC(=O)C(C(O)C7CNC(=N)N7C7OC(CO)C(O)C(O)C7O)NC(=O)C(C(O)C7CNC(=N)N7)NC6=O)cc5)C(O)C4O)C(O)C(O)C3O2)ccc1[N+](=O)[O-] (centres unmarked) : reported MIC Coagulase Negative Staphylococcus (GC 4549) = ?
-- reply 0.5

-- ask # query: MIC Coagulase Negative Staphylococcus (GC 4549) of entry CC(c1ccccc1)C1NC(=O)CNC(=O)C(CO)NC(=O)C(C(O)C2CNC(=N)N2C2OC(CO)C(O)C(O)C2O)NC(=O)C(C(O)C2CNC(=N)N2)NC(=O)C(Cc2ccc(OC3OC(CO)C(OC4OC5COC(CC6CCCCC6)OC5C(O)C4O)C(O)C3O)cc2)NC1=O (centres unmarked)
-- reply 1

-- ask Which MIC Coagulase Negative Staphylococcus (GC 4549) reading was recorded for the compound CC(c1ccccc1)C1NC(=O)CNC(=O)C(CO)NC(=O)C(C(O)C2CNC(=N)N2C2OC(CO)C(O)C(O)C2O)NC(=O)C(C(O)C2CNC(=N)N2)NC(=O)C(Cc2ccc(OC3OC(CO)C(OC4OC5COC(CC6CCN(C(=O)OCc7ccccc7)CC6)OC5C(O)C4O)C(O)C3O)cc2)NC1=O (centres unmarked) ?
-- reply 1
